# Target: Recombinant Human MMP-13 (Homo sapiens, UniProt P45452)
# Construct: purchased R&D systems 511-MM
# Assay Protocol: MMP-13 inhibitory activity (MMP-13 specific fluorescent substrate with quencher)
# Assay type: biochemical
# Test Settings: Experimental Example 3; read-out: IC50 MMP13
Kindly state IC50 for each of the entries shown.

Some solved cases for reference:
CC(=O)NCCCC1(c2ccccc2)CC1(NS(=O)(=O)c1ccc(-c2ccc(Cl)cc2)s1)C(=O)O (centres unmarked) [Example 2-272] : < 100 nM
CN(C)C(=O)OCCC1(c2ccccc2)CC1(NS(=O)(=O)c1ccc(-c2ccc(Cl)cc2)s1)C(=O)O (centres unmarked) [Example 2-303] : < 100 nM
Cn1cc(-c2ccc(S(=O)(=O)N[C@@]3(C(=O)O)C[C@@H]3c3ccccc3)s2)cn1 [Example 2-387] : < 1000 nM
CN(C)c1cc(-c2ccc(S(=O)(=O)N[C@@]3(C(=O)O)C[C@]3(C)c3ccccc3)s2)no1 [Example 2-423] : < 100 nM
CC(=O)NCC1(c2ccccc2)CC1(NS(=O)(=O)c1ccc(-c2ccc(Cl)cc2)s1)C(=O)O (centres unmarked) [Example 2-376] : < 1000 nM
CC1[C@H](c2ccccc2)[C@]1(NS(=O)(=O)N1CCN(c2ccc(Cl)nn2)CC1)C(=O)O (some centres unmarked) [Example 2-503] : < 1000 nM

Working through the 4 molecules below one at a time, give IC50 for each.
1. CCNC(=O)N1CCN(S(=O)(=O)N[C@@]2(C(=O)O)C[C@@H]2c2ccccc2)CC1 [Example 2-512]
2. O=C(NO)C1(NS(=O)(=O)c2ccc(OCc3ccc(Cl)cc3Cl)cc2)C2CCc3ccccc3C21 (centres unmarked) [Example 2-360]
3. O=C(NO)C1(NS(=O)(=O)c2ccc(OCc3ccc(Cl)cc3Cl)cc2)C2CCCc3ccccc3C21 (centres unmarked) [Example 2-390]
4. O=C(NCCCC1(c2ccccc2)CC1(NS(=O)(=O)c1ccc(-c2ccc(Cl)cc2)s1)C(=O)O)OC1CCCC1 (centres unmarked) [Example 2-298]

## Result
["≥ 1000 nM", "< 1000 nM", "≥ 1000 nM", "< 100 nM"]

## Task Query for Recombinant Human MMP-13 (Homo sapiens, UniProt P45452): what IC50 does the record show for CC1[C@H](c2ccccc2)[C@]1(NS(=O)(=O)c1ccc(-n2cc(S(C)(=O)=O)cn2)s1)C(=O)O (some centres unmarked) [Example 2-524] ?
## Result < 100 nM

---

# Target: aggrecanase-1 (Homo sapiens, UniProt O75173)
# Sequence (O75173 213-837, species assumed): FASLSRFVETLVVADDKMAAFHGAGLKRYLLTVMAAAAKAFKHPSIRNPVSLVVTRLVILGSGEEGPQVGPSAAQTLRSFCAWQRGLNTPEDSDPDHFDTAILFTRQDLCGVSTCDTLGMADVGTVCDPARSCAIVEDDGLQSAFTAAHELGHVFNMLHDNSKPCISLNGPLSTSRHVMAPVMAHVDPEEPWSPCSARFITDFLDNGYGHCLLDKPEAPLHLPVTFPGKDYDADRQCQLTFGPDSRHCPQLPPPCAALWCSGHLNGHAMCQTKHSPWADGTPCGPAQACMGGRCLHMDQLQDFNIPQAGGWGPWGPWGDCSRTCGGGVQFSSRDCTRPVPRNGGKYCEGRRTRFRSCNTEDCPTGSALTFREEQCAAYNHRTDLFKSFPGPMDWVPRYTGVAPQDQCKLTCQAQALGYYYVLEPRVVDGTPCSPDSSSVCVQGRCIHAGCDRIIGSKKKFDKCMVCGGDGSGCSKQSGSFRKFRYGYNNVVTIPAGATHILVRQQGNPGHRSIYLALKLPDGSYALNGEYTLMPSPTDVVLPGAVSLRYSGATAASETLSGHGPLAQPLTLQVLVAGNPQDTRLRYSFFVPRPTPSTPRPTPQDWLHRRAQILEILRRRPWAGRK
# Assay Protocol: Aggrecanase-1 inhibitory action (Particle Assay, GAG release from aggrecan-containing polyacrylamide particles)
# Format: biochemical
# Test Settings: aggrecanase-1 inhibitory action; read-out: IC50 AG1 (Experimental Example 1)
Property Name: IC50

Working through the 4 compounds below one at a time, give IC50 for each.
1. CN(C)Cc1cccc(C2CC2(NS(=O)(=O)c2ccc(-c3ccc(Cl)cc3)s2)C(=O)O)c1 (centres unmarked)
2. Nc1ccc(S(=O)(=O)NC2(C(=O)O)CC2c2ccccc2)s1 (centres unmarked)
3. O=C(O)[C@]1(NS(=O)(=O)c2ccc3c(c2)CN(C2CCCCC2)C3)C[C@@H]1c1ccccc1
4. CN1CCC(N(C)Cc2cccc(C3CC3(NS(=O)(=O)c3ccc(-c4ccc(Cl)cc4)s3)C(=O)O)c2)CC1 (centres unmarked)

## Result
1: < 1000 nM; 2: ≥ 10000 nM; 3: ≥ 10000 nM; 4: < 1000 nM

Working through the 7 compounds below one at a time, give IC50 for each.
1. O=C(O)C1(NS(=O)(=O)c2ccc(-c3ccc(Cl)cc3)cc2)CC1c1cccc(OCc2cccnc2)c1 (centres unmarked)
2. O=C(O)[C@@]1(NS(=O)(=O)c2ccc(-c3ccc(Cl)cc3)cc2)C[C@H]1c1ccccc1
3. O=C(O)C1(NS(=O)(=O)c2ccc(-c3ccc(Cl)cc3)s2)CC1c1ccccc1OCc1cccnc1 (centres unmarked)
4. O=C(O)C1(NS(=O)(=O)c2ccc(-c3ccc4c(c3)Cc3ccccc3-4)cc2)CC1c1ccccc1 (centres unmarked)
5. O=C(O)C1(NS(=O)(=O)c2ccc(-c3ccc(Cl)cc3)s2)CC1C1CCC1 (centres unmarked)
6. CC(C)(O)COc1cccc(C2CC2(NS(=O)(=O)c2ccc(-c3ccc(Cl)cc3)s2)C(=O)O)c1 (centres unmarked)
7. C[C@@H]1[C@H](c2ccccc2)[C@]1(NS(=O)(=O)N1CCN(c2ccc(C(F)(F)F)cn2)CC1)C(=O)O

## Result
1: < 1000 nM; 2: < 1000 nM; 3: < 100 nM; 4: < 1000 nM; 5: < 1000 nM; 6: < 100 nM; 7: < 1000 nM

Working through the 3 compounds below one at a time, give IC50 for each.
1. O=C(O)C1(NS(=O)(=O)c2ccc(-c3cc(C(F)(F)F)on3)s2)CC1c1ccccc1CCCO (centres unmarked)
2. O=C(O)CCc1cccc(C2CC2(NS(=O)(=O)c2ccc(-c3ccc(Cl)cc3)s2)C(=O)O)c1 (centres unmarked)
3. CC(C)NC(=O)COc1ccccc1C1CC1(NS(=O)(=O)c1ccc(-c2ccc(Cl)cc2)s1)C(=O)O (centres unmarked)

## Result
1: < 100 nM; 2: < 100 nM; 3: < 1000 nM
